Tested on: MDA-MB-468 breast
measurement_description: NCI tumour cell line growth inhibition, 48 h
Exercise: state measured GI50 for each of the compounds provided.

| compound | GI50 |
| --- | --- |
| Cc1cnc(-c2ccc(-c3ccc(NC(=O)Nc4cccc(C(F)(F)F)c4)cc3F)c3c2C(=O)NC3)[nH]1 | 12600 nM |
| CCN(CC)CCNc1ccc(N=Nc2cnc3ccccc3c2)c2ccccc12 | 1340 nM |
| CN(CCCCCCCCNc1ccnc2ccccc12)Cc1ccc(-c2ccc(-c3ccc(C#N)cc3)s2)cc1 | 69.8 nM |

Quick batch: GI50 for everything below.
1. COc1cc2oc(-c3cccc(C(=O)Nc4ccc(Cl)cc4)c3)cc(=O)c2c(OCCN)c1OC
2. Cn1cc(-c2cc3nc(-c4c[nH]c5ccccc45)cc(N)n3n2)c2ccccc21

["1520 nM", "1550 nM"]

Parameters: items (list). Returns: GI50 for each item.
1. COc1ccc(-c2nsc3c2NC(=O)CC3c2cccc(F)c2)cc1 (stereo not given)
2. O=C(CCN1CCCC1)Nc1ccc2c(Nc3ccc(Br)cc3)c3ccccc3nc2c1
3. O=c1oc2ccc(I)cc2c(=O)n1-c1ccc(I)cc1F
4. COc1ccccc1-c1ccc2c(N)c(C(=O)c3ccc4c(c3)OCO4)sc2n1

1: 1940 nM; 2: 1720 nM; 3: 521 nM; 4: 2430 nM

Given COc1ccc(Cl)cc1Nc1nc(C(F)(F)F)ccc1C(=O)N/N=C/c1ccccc1Cl , respond with its GI50. 1850 nM

---

Tested on: MDA-MB-468 breast
measurement_description: NCI tumour cell line growth inhibition, 48 h
Give measured TGI for each item. Keep answers brief.
Give bare numbers, in µM.

Here are 5 compounds. What values of TGI were reported for them?
1. COc1ccc(C(=O)/C=C/c2c(C(F)(F)F)nc3ccccn23)cc1OC
2. Cc1cnc(-c2ccc(-c3ccc(NC(=O)Nc4cccc(C(F)(F)F)c4)cc3F)c3c2C(=O)NC3)[nH]1
3. COC1/C=C/OC2(C)Oc3c(C)c(O)c4c(O)c(c(/C=N/N(c5ccccc5)c5ccccc5)c(O)c4c3C2=O)NC(=O)C(C)=C/C=C/C(C)C(O)C(C)C(O)C(C)C(OC(C)=O)C1C (stereo not given)
4. O=C(CCN1CCCC1)Nc1ccc2c(Nc3ccc(Br)cc3)c3ccccc3nc2c1
5. COc1cc(C(=O)c2cnc(-c3ccc4cc[nH]c4c3)[nH]2)cc(OC)c1OC

[5.06, 31.1, 7.5, 3.27, 2.66]

Can you give me TGI for all of these, one by one?
1. CCc1c2c(nc3ccc(OC(=O)OCc4ccc(B5OC(C)(C)C(C)(C)O5)cc4)cc13)-c1cc3c(c(=O)n1C2)COC(=O)[C@]3(O)CC
2. Oc1ccccc1/C=N\Nc1ccccc1
3. O=C1/C=C/[C@@H](O)[C@@H]2C[C@@H](O)C[C@H]2/C=C/CCC[C@H](CCc2ccc(NC(=S)Nc3ccc4c(c3)C(=O)OC43c4ccc(O)cc4Oc4cc(O)ccc43)cc2)O1

1: 0.0545; 2: 55.8; 3: 0.449

---

Tested on: MDA-MB-468 breast
measurement_description: NCI tumour cell line growth inhibition, 48 h; in the data active = GI50 below about 0.43 µM; inactive = the rest
Answer with one of the outcomes active, inactive

Below, 3 molecules whose answers are already recorded.
| molecule | target_desc | group |
| --- | --- | --- |
| N#Cc1ccc(O)c(C2=NCC(c3ccc(-c4ccccc4)cc3)O2)c1 (centres undefined) | MDA-MB-468 breast | active |
| N#Cc1ccc(C(=O)c2cnn(-c3ccc(F)cc3)c2N)cc1 | MDA-MB-468 breast | inactive |
| CC1=C[C@H]2O[C@@H]3C[C@H]4OC(=O)/C=C\C=C\[C@H]([C@@H](C)O)OCC/C(C)=C/C(=O)OC[C@@]2(CC1)[C@]4(C)[C@]31CO1 | MDA-MB-468 breast | active |

Hi, do you know how CCN(CC)CCOc1ccc(NC(=O)C(C(C)C)N2C(=O)/C(=C/c3ccc(Br)cc3)SC2=S)cc1 (centres undefined) came out in this test? inactive
